Here the recorded RAMPO Score is given for each entry.
molecular target: T1, P3028 (VFDEFKPLVEEPQNLIK, SEQ ID NO: 185), His-tagged (human); assay: PEPSCAN ELISA; peptide on chip, His-P3028 added;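 further: peroxidase color development with ABTS and H2O2 substrate, OD405 imaged by CCD camera with image processing and taken as raw values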
T1 construct: Synthetic fragment of human serum albumin (positions 397-413); used in solution as His-tagged peptide PGE73; also called PGE73; not shown: His-tag
T1 peptide: VFDEFKPLVEEPQNLIK
Measured property: RAMPO Score (rampo units)

# Binder, Measured property, Measurement units, Endpoint result
data = [
    ("KKLDTFFVKLSIFTER [KKLDTFFVKLSIFTER (SEQ ID NO: 352)]", "RAMPO Score", "rampo units", 456),
    ("KPLDTFFVKLSLFTER [KPLDTFFVKLSLFTER (SEQ ID NO: 405)]", "RAMPO Score", "rampo units", 425),
    ("KKLDCFFVKLSLFTER [KKLDCFFVKLSLFTER (SEQ ID NO: 304)]", "RAMPO Score", "rampo units", 449),
    ("KKLDTFFVKLSLFTKR [KKLDTFFVKLSLFTKR (SEQ ID NO: 471)]", "RAMPO Score", "rampo units", 324),
    ("KKLDTFVVKLSLFTER [KKLDTFVVKLSLFTER (SEQ ID NO: 325)]", "RAMPO Score", "rampo units", 527),
    ("GKLDTFFVKLSLFTER [GKLDTFFVKLSLFTER (SEQ ID NO: 271)]", "RAMPO Score", "rampo units", 367),
    ("KKLDTFCVKLSLFTER [KKLDTFCVKLSLFTER (SEQ ID NO: 409)]", "RAMPO Score", "rampo units", 411),
    ("KFLDTFFVKLSLFTER [KFLDTFFVKLSLFTER (SEQ ID NO: 421)]", "RAMPO Score", "rampo units", 390),
    ("KKLDTFFVKLSLSTER [KKLDTFFVKLSLSTER (SEQ ID NO: 372)]", "RAMPO Score", "rampo units", 635),
    ("KKLDTYFVKLSLFTER [KKLDTYFVKLSLFTER (SEQ ID NO: 434)]", "RAMPO Score", "rampo units", 364),
    ("KKLDTFFVKLSLGTER [KKLDTFFVKLSLGTER (SEQ ID NO: 363)]", "RAMPO Score", "rampo units", 531),
    ("KCLDTFFVKLSLFTER [KCLDTFFVKLSLFTER (SEQ ID NO: 499)]", "RAMPO Score", "rampo units", 295),
]

// data source = patent US20180177842A1
